# assayInfo: NCI Yeast Anticancer Drug Screen. Data for the cln2 rad14 strain (AID 165);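 also: 0% = growth equal to vehicle treated cultures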
# setupConditions: S. cerevisiae cln2 rad14 strain, at 5.0 µM (retest, dose inferred, filed as 0.5), hits give high values
Compounds without any hit were thinned out: in the full panel of roughly 79,000, 15% have a hit.
measuredParameter: growth inhibition (%)
Give bare numbers, in %.

Provide reported growth inhibition for each item, in the same order as listed.
1. C=C1CCC[C@@H]2[C@@](C)(CC3=CC(=O)C=CC3=O)C(C)CC[C@]12C (stereo partly specified)
2. COc1ccc(N(C)Sc2ccccc2)cc1
3. N#Cc1ccccc1NC1OCC(O)C(O)C1O (stereo unspecified)
4. CN(C)c1ccc(/C=C(/NC(=O)c2ccccc2)c2nc3ccc(Cl)cc3[nH]2)cc1
5. COC(=O)C12OCC34C(CC5C(C)C6=CC(=O)OC6=CC5(C)C3C(O)C1O)OC(=O)C(OC(C)=O)C24 (stereo unspecified)

Reply |
1. 7
2. 9
3. -58
4. 16
5. 64

Ask | Please list growth inhibition recorded for the compound CC12CCc3ccccc3C1=Nc1ccccc12 (stereo unspecified)
Reply | -12

The measured values listed here are drawn from PubChem BioAssay (NCI).
